# SYSTEM_TESTED: human RORγt ligand binding domain (RORγt LBD) (Homo sapiens (Human), UniProt P51449)
# Sequence (P51449 other isoform, or with tags, fused parts or gaps): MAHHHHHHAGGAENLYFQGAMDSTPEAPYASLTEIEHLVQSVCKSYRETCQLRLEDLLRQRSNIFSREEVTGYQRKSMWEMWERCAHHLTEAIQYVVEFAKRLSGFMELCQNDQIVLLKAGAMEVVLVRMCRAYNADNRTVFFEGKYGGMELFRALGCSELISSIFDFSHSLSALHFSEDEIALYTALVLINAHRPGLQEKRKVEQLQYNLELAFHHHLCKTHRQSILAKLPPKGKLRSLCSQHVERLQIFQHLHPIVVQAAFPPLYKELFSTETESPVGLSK
# PROCEDURE_TEXT: RORγt ThermoFluor® assay (thermal shift binding)
# EXPERIMENTAL_CONTEXT: read-out: ThermoFluor® Assay, Kd
As shown below, each of these compounds has a reported Kd value.

# COMPOUND, Kd
measured = [
    ("CC[C@H](Nc1cc(C(F)F)c(-c2sc(C(=O)N[C@H]3CC[C@@H]3O)nc2C(=O)N2C3CCC2CC3)cn1)C(F)(F)F (relative stereo)", "2.7 nM"),
    ("CC(C)(O)CNC(=O)c1nc(C(=O)N2C3CCC2CC3)c(-c2cnc(NC3(C)CCC3)cc2C(F)(F)F)s1", "1.7 nM"),
    ("C[C@H]1CCCN1C(=O)c1nc(C(=O)N2CC3(COC3)C2)sc1-c1cnc(NC(C)(C)C)cc1C(F)(F)F", "1.7 nM"),
    ("C[C@H]1CC(F)(F)CN1C(=O)c1nc(C(=O)NCC(C)(C)O)sc1-c1cnc(NCC(C)(C)C(F)(F)F)cc1C(F)(F)F", "0.65 nM"),
    ("C[C@H](Nc1cc(C(F)F)c(-c2sc(C(=O)NCC(C)(C)O)nc2C(=O)N2CCCC[C@@H]2C)cn1)C(F)(F)F", "1.5 nM"),
    ("C[C@H](NC(=O)c1nc(C(=O)N2CCC[C@@H]2C)c(-c2cnc(NC(C)(C)C)cc2C(F)(F)F)s1)[C@@H](C)O (relative stereo)", "5.5 nM"),
    ("C[C@H]1CCCN1C(=O)c1nc(C(=O)NC2CS(=O)(=O)C2)sc1-c1cnc(NC2CCCC2)cc1C(F)F", "7 nM"),
    ("CC(C)(O)CNC(=O)c1nc(C(=O)N2CCC(F)CC2)c(-c2cnc(NC3CCCCC3)cc2C#N)s1", "79 nM"),
    ("C[C@H]1CCCCN1C(=O)c1nc(C(=O)NCC(C)(C)O)sc1-c1cnc(NCC(C)(C)C)cc1C(F)F", "0.49 nM"),
    ("CC[C@H](Nc1cc(C(F)F)c(-c2sc(C(=O)N[C@H]3C[C@@H]3O)nc2C(=O)N2CCC[C@@H]2C)cn1)C(F)(F)F (relative stereo)", "12 nM"),
    ("CC[C@H](Nc1cc(C(F)F)c(-c2sc(C(=O)N[C@@H]3CCC[C@H]3O)nc2C(=O)N2CC(F)(F)C[C@@H]2C)cn1)C(F)(F)F", "0.18 nM"),
    ("C[C@H]1CCCN1C(=O)c1nc(C(=O)NCC(C)(O)C(F)(F)F)sc1-c1cnc(NC(C)(C)C)cc1C(F)(F)F (stereo partly shown) [Example 357]", "1.2 nM"),
    ("C[C@H]1CCCN1C(=O)c1nc(C(=O)NCC(C)(C)O)sc1-c1cnc(NC(C)(C)C)cc1C(F)(F)F", "1.2 nM"),
]

The reported measurements were obtained from patent US10975068B2.
